Sourced from ChEMBL document CHEMBL1157886

molecular target: D(2) dopamine receptor (Homo sapiens); assay: Displacement of [3H]spiperone form human dopamine D2 receptor by liquid scintillation counting
Sequence (P14416 whole entry): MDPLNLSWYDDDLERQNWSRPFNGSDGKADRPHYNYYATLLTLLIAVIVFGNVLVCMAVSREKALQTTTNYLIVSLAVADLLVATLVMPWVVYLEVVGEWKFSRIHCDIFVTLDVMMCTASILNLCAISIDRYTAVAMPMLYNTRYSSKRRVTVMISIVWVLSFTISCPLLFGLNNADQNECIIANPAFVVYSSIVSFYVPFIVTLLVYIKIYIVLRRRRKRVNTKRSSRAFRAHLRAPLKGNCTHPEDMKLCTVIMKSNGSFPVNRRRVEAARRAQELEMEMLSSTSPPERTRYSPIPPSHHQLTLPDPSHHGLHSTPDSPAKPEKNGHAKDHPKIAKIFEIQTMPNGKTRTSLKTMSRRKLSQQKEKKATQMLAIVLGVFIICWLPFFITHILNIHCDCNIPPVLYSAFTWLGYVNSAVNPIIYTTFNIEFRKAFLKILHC

{"INPUT SMILES": "O=C1CCc2ccc(OC3CCN(C[C@@H]4COc5c(ccc6c5CC(=O)N6)O4)CC3)cc2N1", "ASSAY SYSTEM": "D(2) dopamine receptor (Homo sapiens)", "Ki [nM]": 2.5}
{"INPUT SMILES": "O=C1CCc2ccc(OCCCCN3CCN(c4cccc5[nH]c(=O)oc45)CC3)cc2N1", "ASSAY SYSTEM": "D(2) dopamine receptor (Homo sapiens)", "Ki [nM]": 8.3}
{"INPUT SMILES": "O=C1CCc2ccc(OCCN3CCN(c4cccc5[nH]c(=O)oc45)CC3)cc2N1", "ASSAY SYSTEM": "D(2) dopamine receptor (Homo sapiens)", "Ki [nM]": 8.6}
{"INPUT SMILES": "O=C1CCc2ccc(OCCCN3CCN(c4cccc5[nH]c(=O)oc45)CC3)cc2N1", "ASSAY SYSTEM": "D(2) dopamine receptor (Homo sapiens)", "Ki [nM]": 8.6}
